System tested: full-length AMPK (rat His-α1, β1, γ1) (Rattus norvegicus, UniProt P54645+P80385)
Construct: Tricistronic vectors encoding full-length AMPK (rat His-α1, β1, γ1); made in house; host or cells: Rosetta cells (E. coli), tricistronic vector, gift of Dr. Uwe Schlattner
Sequence (P54645 with tags, fused parts or gaps limits assumed): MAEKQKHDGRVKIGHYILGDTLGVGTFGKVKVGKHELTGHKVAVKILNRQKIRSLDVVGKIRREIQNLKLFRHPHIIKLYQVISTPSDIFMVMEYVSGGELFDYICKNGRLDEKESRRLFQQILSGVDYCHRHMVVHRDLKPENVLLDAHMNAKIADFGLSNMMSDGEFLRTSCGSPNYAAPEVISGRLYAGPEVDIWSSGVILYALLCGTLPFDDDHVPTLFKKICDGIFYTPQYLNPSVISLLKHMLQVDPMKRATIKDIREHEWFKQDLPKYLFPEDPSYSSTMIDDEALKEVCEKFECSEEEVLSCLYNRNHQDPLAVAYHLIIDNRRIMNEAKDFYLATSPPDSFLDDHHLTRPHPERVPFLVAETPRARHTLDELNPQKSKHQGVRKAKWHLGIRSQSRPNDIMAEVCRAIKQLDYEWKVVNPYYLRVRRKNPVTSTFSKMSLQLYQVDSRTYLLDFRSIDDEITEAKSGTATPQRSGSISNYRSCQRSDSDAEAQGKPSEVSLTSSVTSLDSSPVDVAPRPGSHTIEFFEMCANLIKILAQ
Sequence (P80386 whole entry partner): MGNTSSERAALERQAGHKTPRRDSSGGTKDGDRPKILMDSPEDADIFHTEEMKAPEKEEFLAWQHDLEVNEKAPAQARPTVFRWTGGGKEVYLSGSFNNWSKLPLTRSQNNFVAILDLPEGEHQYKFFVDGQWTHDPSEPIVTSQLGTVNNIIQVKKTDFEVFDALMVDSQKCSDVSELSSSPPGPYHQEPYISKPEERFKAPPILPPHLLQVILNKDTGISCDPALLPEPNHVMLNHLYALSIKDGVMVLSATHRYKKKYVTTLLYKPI
Sequence (P80385 whole entry): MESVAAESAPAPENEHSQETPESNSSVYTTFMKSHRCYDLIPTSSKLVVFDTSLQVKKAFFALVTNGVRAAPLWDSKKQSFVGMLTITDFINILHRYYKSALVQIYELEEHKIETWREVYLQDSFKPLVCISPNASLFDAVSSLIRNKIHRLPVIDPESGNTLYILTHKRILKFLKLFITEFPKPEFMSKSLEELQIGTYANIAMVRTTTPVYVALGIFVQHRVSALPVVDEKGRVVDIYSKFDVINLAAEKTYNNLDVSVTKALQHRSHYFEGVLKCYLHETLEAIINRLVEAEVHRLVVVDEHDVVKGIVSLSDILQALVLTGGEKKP
Method summary: MANT-ADP fluorescence displacement (binding) assay, full-length AMPK
Reported conditions: 1 mM DTT; read-out: extrapolated IC50 in the presence of DTT
Reported endpoint: IC50

The recorded IC50 for O=C1Nc2ccc(Br)cc2/C1=C1/SC(=S)N(C(Cc2ccccc2)C(=O)O)C1=O (stereo not shown) is ~250 µM

###

System tested: full-length AMPK (rat His-α1, β1, γ1) (Rattus norvegicus, UniProt P54645+P80385)
Construct: Tricistronic vectors encoding full-length AMPK (rat His-α1, β1, γ1); made in house; host or cells: Rosetta cells (E. coli), tricistronic vector, gift of Dr. Uwe Schlattner
Method summary: MANT-ADP fluorescence displacement (binding) assay, full-length AMPK
Reported conditions: full-length AMPK; MANT-ADP with no protein = 100% inhibition; read-out: IC50, inhibition of the increase in MANT-ADP fluorescence
Description: Except where otherwise noted, assays were performed with the following conditions: 0.5 μM full-length AMPK (130 kDa) or 0.5 μM regulatory fragment (66.7 kDa), 0.1 μM MANT-ADP, 10 mM Tris-HCl (pH 8), 0.45% DMSO (vehicle and negative control), and 5 μM ADP (positive control). […] Plates were shaken for 10 minutes prior to reading. Fluorescence emission spectra of MANT-ADP were collected using a PerkinElmer EnSpire plate reader with an excitation wavelength of 360 nm. […]
Reported endpoint: pIC50
On this scale, pIC50 is minus log10 of a concentration expressed in M (mol/L).

Tested on full-length AMPK (rat His-α1, β1, γ1) (Rattus norvegicus, UniProt P54645+P80385), the item Nc1ncnc2c1ncn2[C@@H]1O[C@H](COP(=O)(O)OP(=O)(O)O)[C@@H](O)[C@H]1O [ADP, adenosine diphosphate, reference compound] showed pIC50 equal to 6.52

###

System tested: full-length His-AMPK (Rattus norvegicus, UniProt P54645+P80385)
Construct: Tricistronic vectors encoding full-length AMPK (rat His-α1, β1, γ1)
Method summary: Isothermal titration calorimetry
Reported conditions: both sites; 5 mM phosphate buffer (pH 7.4), room temperature; n=1; read-out: calculated dissociation constants
Reported endpoint: pKd
On this scale, pKd is minus log10 of a concentration expressed in M (mol/L).

Tested on full-length His-AMPK (Rattus norvegicus, UniProt P54645+P80385), the item Nc1ncnc2c1ncn2[C@@H]1O[C@H](COP(=O)(O)OP(=O)(O)O)[C@@H](O)[C@H]1O [ADP, adenosine diphosphate, reference compound] showed pKd equal to 4.89

###

System tested: AMPK regulatory fragment (rat His-α1, 396-548; human β2, 187-272; rat γ1) (Rattus norvegicus, UniProt P80385)
Construct: rat His-α1, 396-548; human β2, 187-272; rat γ1; made in house; host or cells: Rosetta cells (E. coli), tricistronic vector, gift of Dr. Steve Gamblin
Sequence (O43741 187-272 partner limits assumed, one chain of several): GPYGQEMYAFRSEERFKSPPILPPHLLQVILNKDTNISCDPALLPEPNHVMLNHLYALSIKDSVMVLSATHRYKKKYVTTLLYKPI
Method summary: MANT-ADP fluorescence displacement (binding) assay, AMPK regulatory fragment
Reported conditions: MANT-ADP with no protein = 100% inhibition, read-out: IC50, inhibition of the increase in MANT-ADP fluorescence
Procedure: Except where otherwise noted, assays were performed with the following conditions: 0.5 μM full-length AMPK (130 kDa) or 0.5 μM regulatory fragment (66.7 kDa), 0.1 μM MANT-ADP, 10 mM Tris-HCl (pH 8), 0.45% DMSO (vehicle and negative control), and 5 μM ADP (positive control). […] Plates were shaken for 10 minutes prior to reading. Fluorescence emission spectra of MANT-ADP were collected using a PerkinElmer EnSpire plate reader with an excitation wavelength of 360 nm. […]
Reported endpoint: pIC50
On this scale, pIC50 is minus log10 of a concentration expressed in M (mol/L).

The recorded pIC50 for Nc1ncnc2c1ncn2[C@@H]1O[C@H](COP(=O)(O)OP(=O)(O)O)[C@@H](O)[C@H]1O [ADP, adenosine diphosphate, reference compound] is 6.40

###

Provide the reported pIC50 of each item.
System tested: full-length AMPK (rat His-α1, β1, γ1) (Rattus norvegicus, UniProt P54645+P80385)
Construct: Tricistronic vectors encoding full-length AMPK (rat His-α1, β1, γ1); made in house; host or cells: Rosetta cells (E. coli), tricistronic vector, gift of Dr. Uwe Schlattner
Method summary: MANT-ADP fluorescence displacement (binding) assay, full-length AMPK
Reported conditions: full-length AMPK; Example 4; read-out: binding IC50
pIC50: −log10 of the molar value.

Tested on full-length AMPK (rat His-α1, β1, γ1) (Rattus norvegicus, UniProt P54645+P80385), the item CCCOC(=O)c1cc(-c2ccc(/C=C3\SC(=S)NC3=O)o2)ccc1Cl showed pIC50 equal to > 5.30

Tested on full-length AMPK (rat His-α1, β1, γ1) (Rattus norvegicus, UniProt P54645+P80385), the item O=C1/C(=C/c2ccc(-c3ccc(Cl)c(Cl)c3)o2)SC(=S)N1CCS(=O)(=O)O showed pIC50 equal to > 5.30

Tested on full-length AMPK (rat His-α1, β1, γ1) (Rattus norvegicus, UniProt P54645+P80385), the item Cc1ccc(-c2ccc(/C=C3\SC(=S)N(CC(=O)O)C3=O)o2)cc1 showed pIC50 equal to 5.05
